pKi: −log10 of the molar value. Where a name gives a salt, the structure may show the parent alone.
Quick record: pKi, ICE (Homo sapiens, UniProt P29466).
attribute measured: pKi

compound: CC(C)C(CC(=O)NCCc1cn(C)c2ccc(F)cc12)C(=O)NC(C=O)CC(=O)O (stereo not shown)
pKi: 8.10
--
compound: CC(C)C(CC(=O)NCCn1nnc2ccccc21)C(=O)NC(C=O)CC(=O)O (stereo not shown)
pKi: 7.50
--
compound: CC(C)C(CC(=O)NCCc1ccccc1)C(=O)NC(CC(=O)O)C(=O)CNS(=O)(=O)CCc1ccccc1 (stereo not shown)
pKi: 6.47
--
compound: CCOC(=O)CC(C=O)NC(=O)C(CC(=O)NCCOc1ccccc1)C(C)C (stereo not shown)
pKi: 5.16
--
compound: CCOC1OC(=O)CC1NC(=O)C(CC(=O)NCCn1ccc2ccccc21)C(C)C (stereo not shown)
pKi: 7.27

P: CC(C)C(CC(N)=O)C(=O)NC(CC(=O)O)C(=O)CNS(=O)(=O)CCc1ccccc1 (stereo not shown)
Q: CC(=O)c1ccc2[nH]cc(CCNC(=O)CC(C(=O)NC(CC(=O)O)C(=O)CNS(=O)(=O)CC34CCC(CC3=O)C4(C)C)C(C)C)c2c1 (stereo not shown)
# input Between P and Q , whose measured pKi reads higher? Bench note: the answer is the label of the chosen record.
# output Q
(Q: 8.19, P: 5.66)

P: CC(C)[C@H](CC(=O)NCCOc1ccccc1)C(=O)NC(C=O)CC(=O)O (stereo partly shown)
Q: Cc1cc2ncn(CCNC(=O)CC(C(=O)NC(C=O)CC(=O)O)C(C)C)c2cc1C (stereo not shown) [Example 23, trifluoroacetate salt]
# input Parameter metric = pKi. Return the lower-valued option from P and Q . Provide the label of your selected option as the answer.
# output P

a: CC(C)C(CC(=O)NCCc1ccc2ccccc2c1)C(=O)NC(CC(=O)O)C(=O)CNS(=O)(=O)CC12CCC(CC1=O)C2(C)C (stereo not shown)
b: CC(C)C(CC(=O)NCCc1c[nH]c2ccccc12)C(=O)NC(CC(=O)O)C(=O)CNS(=O)(=O)CC12CCC(CC1=O)C2(C)C (stereo not shown)
c: CC(C)[C@H](CC(=O)NCCCc1ccccc1)C(=O)N[C@H](C=O)CC(=O)O
d: CC(C)C(CC(=O)NCCc1cn(C)c2ccccc12)C(=O)NC(CC(=O)O)C(=O)CNS(=O)(=O)CC12CCC(CC1=O)C2(C)C (stereo not shown)
# input Arrange the 4 compounds from largest to smallest pKi. List labels; respect the requested ordering.
# output d, b, a, c

P: CC(C)C(CC(=O)NCCCc1ccc(O)cc1)C(=O)NC(CC(=O)O)C(=O)CNS(=O)(=O)CC12CCC(CC1=O)C2(C)C (stereo not shown)
Q: CC(C)C(CC(=O)NCCc1nnn[nH]1)C(=O)NC(CC(=O)O)C(=O)CNS(=O)(=O)CC12CCC(CC1=O)C2(C)C (stereo not shown)
# input Out of P and Q , name the one with the higher pKi. Answer by stating the label of the chosen item.
# output Q
(Q: 7.78, P: 7.48)

Source: patent EP1082127B1
